TARGET UNDER TEST: ScBzz1-D1
ASSAY SUMMARY: SPOT peptide array binding signal intensity (averaged, normalized) (arbitrary units (background-subtracted, floor 0; scale differs between SH3 domains)); higher = stronger binding of the SH3 domain to the peptide
Classification field. Basis: SPOT peptide array binding signal intensity. Definitions: Low (below 10), Mid (10 to below 100), High (100 or more)

Consider the worked cases shown below.
VRTRRRPPPPPIPST = High
VAPPPLPNRQLPNLD = Low
NAGIRPKFILALNDE = Mid

Enquiry: Form field 'band' for SLSRRRFSLPSMPNV
Return: Mid

Enquiry: How about this binder: GATNNAPTLPKRKNP
Return: Mid
